# Assay protocol: Luminescence lifetimes (TRIS buffer, deuterated water, 77K) and inner sphere water number q
# Conditions used: solid matrix at 77K (methanol/ethanol 1/4); first component
Some compounds, each annotated with its measured τ (77K).

{"columns": ["Compound", "τ (77K), μs"],
 "data": [
  ["O=C(NCCN(CCNC(=O)c1cccc(=O)n1O)CCOCCOCCOCCN(CCNC(=O)c1cccc(=O)n1O)CCNC(=O)c1cccc(=O)n1O)c1cccc(=O)n1O [Eu(H11-3)]", 765],
  ["O=C(NCCN(CCNC(=O)c1cccc(=O)n1O)CCOCCOCCOCCOCCN(CCNC(=O)c1cccc(=O)n1O)CCNC(=O)c1cccc(=O)n1O)c1cccc(=O)n1O.[Eu] [[Eu(H(14O4,2)-1,2HOPO)]^0]", 819],
  ["O=C(NCCN(CCNC(=O)c1cccc(=O)n1O)CCOCCOCCOCCOCCOCCN(CCNC(=O)c1cccc(=O)n1O)CCNC(=O)c1cccc(=O)n1O)c1cccc(=O)n1O.[Eu] [[Eu(H(17O5,2)-1,2HOPO)]^0]", 826],
  ["O=C(NCCN(CCNC(=O)c1cccc(=O)n1O)CCOCCOCCN(CCNC(=O)c1cccc(=O)n1O)CCNC(=O)c1cccc(=O)n1O)c1cccc(=O)n1O [Eu(H8-2)]", 748]
]}

###

# Assay protocol: Luminescence lifetimes (TRIS buffer, deuterated water, 77K) and inner sphere water number q
# Conditions used: aqueous TRIS pH = 7.4
Property measured: τ (μs)

{"columns": ["Compound", "Experimental value"],
 "data": [
  ["O=C(NCCN(CCNC(=O)c1cccc(=O)n1O)CCOCCOCCOCCOCCOCCN(CCNC(=O)c1cccc(=O)n1O)CCNC(=O)c1cccc(=O)n1O)c1cccc(=O)n1O.[Eu] [[Eu(H(17O5,2)-1,2HOPO)]^0]", 704],
  ["O=C(NCCN(CCNC(=O)c1cccc(=O)n1O)CCOCCOCCN(CCNC(=O)c1cccc(=O)n1O)CCNC(=O)c1cccc(=O)n1O)c1cccc(=O)n1O", 697],
  ["O=C(NCCN(CCNC(=O)c1cccc(=O)n1O)CCOCCOCCOCCN(CCNC(=O)c1cccc(=O)n1O)CCNC(=O)c1cccc(=O)n1O)c1cccc(=O)n1O", 668],
  ["O=C(NCCN(CCNC(=O)c1cccc(=O)n1O)CCOCCOCCOCCOCCN(CCNC(=O)c1cccc(=O)n1O)CCNC(=O)c1cccc(=O)n1O)c1cccc(=O)n1O.[Eu] [[Eu(H(14O4,2)-1,2HOPO)]^0]", 700]
]}

###

Examples of compounds with documented ε follow.
# Assay protocol: UV/visible absorption spectroscopy of Eu(III) complexes in TRIS buffer
# Format: physicochemical
# Conditions used: TRIS buffer pH = 7.4
Property measured: ε

{"columns": ["Compound", "Property measured", "Experimental value"],
 "data": [
  ["O=C(NCCN(CCNC(=O)c1cccc(=O)n1O)CCOCCOCCOCCOCCOCCN(CCNC(=O)c1cccc(=O)n1O)CCNC(=O)c1cccc(=O)n1O)c1cccc(=O)n1O.[Eu] [[Eu(H(17O5,2)-1,2HOPO)]^0]", "ε", "15,000 M^−1 · cm^−1"],
  ["O=C(NCCN(CCNC(=O)c1cccc(=O)n1O)CCOCCN(CCNC(=O)c1cccc(=O)n1O)CCNC(=O)c1cccc(=O)n1O)c1cccc(=O)n1O.[Eu]", "ε", "15,900 M^−1 · cm^−1"],
  ["O=C(NCCN(CCNC(=O)c1cccc(=O)n1O)CCOCCOCCOCCN(CCNC(=O)c1cccc(=O)n1O)CCNC(=O)c1cccc(=O)n1O)c1cccc(=O)n1O", "ε", "15,070 M^−1 · cm^−1"],
  ["O=C(NCCN(CCNC(=O)c1cccc(=O)n1O)CCOCCOCCOCCOCCN(CCNC(=O)c1cccc(=O)n1O)CCNC(=O)c1cccc(=O)n1O)c1cccc(=O)n1O.[Eu] [[Eu(H(14O4,2)-1,2HOPO)]^0]", "ε", "15,200 M^−1 · cm^−1"],
  ["O=C(NCCN(CCNC(=O)c1cccc(=O)n1O)CCOCCOCCN(CCNC(=O)c1cccc(=O)n1O)CCNC(=O)c1cccc(=O)n1O)c1cccc(=O)n1O", "ε", "15,350 M^−1 · cm^−1"]
]}

###

# Assay protocol: Calculation of Eu luminescence parameters (radiative lifetime, rate constants, efficiencies)
# Format: physicochemical
# Conditions used: radiative rate constant
// reported kr per item
Property measured: kr

{"columns": ["Compound", "Property measured", "Experimental value"],
 "data": [
  ["O=C(NCCN(CCNC(=O)c1cccc(=O)n1O)CCOCCOCCN(CCNC(=O)c1cccc(=O)n1O)CCNC(=O)c1cccc(=O)n1O)c1cccc(=O)n1O [Eu(H8-2)]", "kr", "566 s⁻¹"],
  ["O=C(NCCN(CCNC(=O)c1cccc(=O)n1O)CCOCCOCCOCCN(CCNC(=O)c1cccc(=O)n1O)CCNC(=O)c1cccc(=O)n1O)c1cccc(=O)n1O [Eu(H11-3)]", "kr", "615 s⁻¹"],
  ["O=C(NCCN(CCNC(=O)c1cccc(=O)n1O)CCOCCOCCOCCOCCN(CCNC(=O)c1cccc(=O)n1O)CCNC(=O)c1cccc(=O)n1O)c1cccc(=O)n1O.[Eu] [[Eu(H(14O4,2)-1,2HOPO)]^0]", "kr", "754 s⁻¹"],
  ["O=C(NCCN(CCNC(=O)c1cccc(=O)n1O)CCOCCOCCOCCOCCOCCN(CCNC(=O)c1cccc(=O)n1O)CCNC(=O)c1cccc(=O)n1O)c1cccc(=O)n1O.[Eu] [[Eu(H(17O5,2)-1,2HOPO)]^0]", "kr", "742 s⁻¹"]
]}

###

# Assay protocol: UV/visible absorption spectroscopy of Eu(III) complexes in TRIS buffer
# Assay type: physicochemical
# Conditions used: absorption maximum
Readings of λ for the listed compounds
Property measured: λ

{"columns": ["Structure", "Property measured", "Experimental value"],
 "data": [
  ["O=C(NCCN(CCNC(=O)c1cccc(=O)n1O)CCOCCOCCOCCN(CCNC(=O)c1cccc(=O)n1O)CCNC(=O)c1cccc(=O)n1O)c1cccc(=O)n1O", "λ", "334 nm"],
  ["O=C(NCCN(CCNC(=O)c1cccc(=O)n1O)CCOCCOCCN(CCNC(=O)c1cccc(=O)n1O)CCNC(=O)c1cccc(=O)n1O)c1cccc(=O)n1O", "λ", "336 nm"],
  ["O=C(NCCN(CCNC(=O)c1cccc(=O)n1O)CCOCCN(CCNC(=O)c1cccc(=O)n1O)CCNC(=O)c1cccc(=O)n1O)c1cccc(=O)n1O.[Eu]", "λ", "337 nm"]
]}

###

# Assay protocol: Calculation of Eu luminescence parameters (radiative lifetime, rate constants, efficiencies)
# Assay type: physicochemical
# Conditions used: sensitization efficiency
# Protocol: In this equation, the ηISC ηET term is termed the sensitization efficiency, ηsens (ηsens=ηISC ηET). All the luminescence parameters τR (the pure radiative luminescence lifetime), kR and knR (the radiative and non-radiative constant rate) can be deduced. These parameters were calculated for five of the octadentate complexes and the model complex that present only one species in solution at pH=7.4 and are reported in Table 6.
Property measured: η^sens

{"columns": ["Compound", "Experimental value"],
 "data": [
  ["O=C(NCCN(CCNC(=O)c1cccc(=O)n1O)CCOCCOCCN(CCNC(=O)c1cccc(=O)n1O)CCNC(=O)c1cccc(=O)n1O)c1cccc(=O)n1O", 0.284],
  ["O=C(NCCN(CCNC(=O)c1cccc(=O)n1O)CCOCCOCCOCCN(CCNC(=O)c1cccc(=O)n1O)CCNC(=O)c1cccc(=O)n1O)c1cccc(=O)n1O", 0.402],
  ["O=C(NCCN(CCNC(=O)c1cccc(=O)n1O)CCOCCOCCOCCOCCOCCN(CCNC(=O)c1cccc(=O)n1O)CCNC(=O)c1cccc(=O)n1O)c1cccc(=O)n1O.[Eu] [[Eu(H(17O5,2)-1,2HOPO)]^0]", 0.375],
  ["O=C(NCCN(CCNC(=O)c1cccc(=O)n1O)CCOCCOCCOCCOCCN(CCNC(=O)c1cccc(=O)n1O)CCNC(=O)c1cccc(=O)n1O)c1cccc(=O)n1O.[Eu] [[Eu(H(14O4,2)-1,2HOPO)]^0]", 0.364]
]}

###

# Assay protocol: Luminescence quantum yield, emission and brightness in aqueous 0.1 M TRIS buffer
# Format: physicochemical
# Conditions used: at maximum absorption; product of quantum yield and molar absorption coefficient; 0.1 M TRIS pH = 7.4
Recorded Brightness values for a group of compounds are listed next.

{"columns": ["Compound", "Brightness"],
 "data": [
  ["O=C(NCCN(CCNC(=O)c1cccc(=O)n1O)CCOCCOCCN(CCNC(=O)c1cccc(=O)n1O)CCNC(=O)c1cccc(=O)n1O)c1cccc(=O)n1O [Eu(H8-2)]", "1720 M⁻¹ cm⁻¹"],
  ["O=C(NCCN(CCNC(=O)c1cccc(=O)n1O)CCOCCOCCOCCOCCOCCN(CCNC(=O)c1cccc(=O)n1O)CCNC(=O)c1cccc(=O)n1O)c1cccc(=O)n1O.[Eu] [[Eu(H(17O5,2)-1,2HOPO)]^0]", "2940 M⁻¹ cm⁻¹"],
  ["O=C(NCCN(CCNC(=O)c1cccc(=O)n1O)CCOCCOCCOCCOCCN(CCNC(=O)c1cccc(=O)n1O)CCNC(=O)c1cccc(=O)n1O)c1cccc(=O)n1O.[Eu] [[Eu(H(14O4,2)-1,2HOPO)]^0]", "2920 M⁻¹ cm⁻¹"],
  ["O=C(NCCN(CCNC(=O)c1cccc(=O)n1O)CCOCCN(CCNC(=O)c1cccc(=O)n1O)CCNC(=O)c1cccc(=O)n1O)c1cccc(=O)n1O.[Eu] [Eu(H5-1)]", "1065 M⁻¹ cm⁻¹"],
  ["O=C(NCCN(CCNC(=O)c1cccc(=O)n1O)CCOCCOCCOCCN(CCNC(=O)c1cccc(=O)n1O)CCNC(=O)c1cccc(=O)n1O)c1cccc(=O)n1O [Eu(H11-3)]", "2485 M⁻¹ cm⁻¹"]
]}

Data credit: patent US10352938B2
